tested on: SK-OV-3 ovarian; test: NCI tumour cell line growth inhibition, 48 h
Catalogue of TGI values

IN: For SK-OV-3 ovarian, give TGI of the listed compound: CC(=O)/C=C/c1c[nH]c(=O)[nH]c1=O
OUT: 703 µM

###

test system: MDA-MB-231 breast; test: NCI tumour cell line growth inhibition, 48 h
Measured TGI of individual entries
Quick note: give the figure in µM, leave out the unit.

>>> print(df.to_string())
                                   molecule  measurement_type  display_unit  experimental_result
0  Clc1cc(Cl)cc(N2N=C(c3cccc(Nc4ccncc4)c3)CC2c2ccc(Br)cc2)c1 (stereo not given)               TGI            µM                 2.91
1  CC1(C)N=C(N)N=C(N)N1c1ccc(CCCCc2ccc(Cl)cc2Cl)cc1               TGI            µM                 16.6

Next item in the queue.
IN: // fetch TGI given entry O=C(Nc1cc(Cl)ccc1O)c1cccc(NC2=C(Cl)C(=O)N(Cc3ccccc3)C2=O)c1
OUT: 40.3
